biological target: recombinant soluble homotrimeric HA of A/California/4/09 (H1N1) (Influenza A virus A/California/04/2009(H1N1)); assay: trimeric HA microarray, transfection supernatant set 3; settings: remark: other sources report otherwise
Each item that follows carries a reported Trimeric HA Binding: RLU.
The response must be a number in RLU with no trailing unit.

• TCN-531 (5091_H13) (antibody, V domains shown) VH: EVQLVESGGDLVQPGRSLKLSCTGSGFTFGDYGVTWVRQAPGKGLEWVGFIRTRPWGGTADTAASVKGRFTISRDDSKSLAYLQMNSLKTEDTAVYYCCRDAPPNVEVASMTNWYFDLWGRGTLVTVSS VL: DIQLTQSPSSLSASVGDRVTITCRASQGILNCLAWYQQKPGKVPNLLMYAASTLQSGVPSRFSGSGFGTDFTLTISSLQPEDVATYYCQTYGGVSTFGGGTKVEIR = 2830
• TCN-504 (3251_K17) (antibody, V domains shown) VH: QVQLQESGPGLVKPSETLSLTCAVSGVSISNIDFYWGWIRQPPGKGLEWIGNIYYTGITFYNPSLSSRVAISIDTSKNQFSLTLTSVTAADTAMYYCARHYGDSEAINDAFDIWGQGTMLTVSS VL: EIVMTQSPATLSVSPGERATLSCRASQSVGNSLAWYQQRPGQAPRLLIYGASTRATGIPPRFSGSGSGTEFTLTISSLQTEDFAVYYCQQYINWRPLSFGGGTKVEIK = 18600

Consider now this further binder.
Fill in the blank: the reported Trimeric HA Binding: RLU of TCN-532 (5262_H18) (antibody, V domains shown) VH: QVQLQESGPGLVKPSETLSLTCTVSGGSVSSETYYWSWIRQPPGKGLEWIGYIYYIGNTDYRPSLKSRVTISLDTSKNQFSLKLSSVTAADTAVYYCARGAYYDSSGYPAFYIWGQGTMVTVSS VL: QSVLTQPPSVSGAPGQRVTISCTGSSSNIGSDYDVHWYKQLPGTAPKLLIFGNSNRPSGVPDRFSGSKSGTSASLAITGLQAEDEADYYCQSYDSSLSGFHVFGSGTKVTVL is ____.
23600

Taken from patent US20150086555A1.
